Molecular target: Amine oxidase [flavin-containing] B (Homo sapiens, UniProt P27338)
Sequence (P27338 whole entry): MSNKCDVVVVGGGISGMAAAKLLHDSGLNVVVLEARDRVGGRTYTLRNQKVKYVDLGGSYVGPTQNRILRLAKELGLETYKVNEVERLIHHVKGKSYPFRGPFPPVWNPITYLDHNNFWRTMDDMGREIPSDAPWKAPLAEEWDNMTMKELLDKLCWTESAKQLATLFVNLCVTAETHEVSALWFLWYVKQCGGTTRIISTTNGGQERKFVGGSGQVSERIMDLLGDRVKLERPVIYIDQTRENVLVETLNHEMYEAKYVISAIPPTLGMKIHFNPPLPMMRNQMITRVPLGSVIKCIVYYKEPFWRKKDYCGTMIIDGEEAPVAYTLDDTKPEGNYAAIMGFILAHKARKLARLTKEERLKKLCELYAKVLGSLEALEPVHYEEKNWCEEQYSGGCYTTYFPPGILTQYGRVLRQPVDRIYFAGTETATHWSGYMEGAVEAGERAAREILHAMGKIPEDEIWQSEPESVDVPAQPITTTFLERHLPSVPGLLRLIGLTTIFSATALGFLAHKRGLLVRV
Assay: Inhibition of recombinant human MAOB expressed in insect cells measured after 20 mins by fluorescence spectrophotometry

{"query_smiles": "O=C(/C=C/c1cccc(Br)c1)c1cc(O)c(O)c([N+](=O)[O-])c1", "IC50": "13.9 µM"}

----------
Target: Amine oxidase [flavin-containing] A (Homo sapiens)
Sequence (P21397 whole entry): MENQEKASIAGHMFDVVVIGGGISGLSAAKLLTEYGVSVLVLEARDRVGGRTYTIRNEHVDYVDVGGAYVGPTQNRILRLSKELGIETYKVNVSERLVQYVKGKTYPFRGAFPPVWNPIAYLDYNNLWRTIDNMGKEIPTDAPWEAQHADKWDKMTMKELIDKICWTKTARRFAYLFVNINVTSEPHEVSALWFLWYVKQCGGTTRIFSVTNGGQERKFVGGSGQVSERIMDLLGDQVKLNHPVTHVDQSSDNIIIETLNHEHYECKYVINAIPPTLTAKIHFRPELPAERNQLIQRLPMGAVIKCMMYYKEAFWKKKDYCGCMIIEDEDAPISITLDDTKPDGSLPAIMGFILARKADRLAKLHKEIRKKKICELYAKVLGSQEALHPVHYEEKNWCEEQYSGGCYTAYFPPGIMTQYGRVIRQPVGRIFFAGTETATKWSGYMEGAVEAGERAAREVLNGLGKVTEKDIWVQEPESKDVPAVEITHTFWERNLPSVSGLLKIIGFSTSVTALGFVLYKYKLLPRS
Experiment: Inhibition of recombinant human MAOA using kynuramine as substrate by fluorescence based assay
pIC50: −log10 of the molar value.
Each item that follows carries a reported pIC50.

{"compound": "Cn1cc(/C=C/C(=O)c2cc(O)c(O)c([N+](=O)[O-])c2)cn1", "pIC50": 4.29}
{"compound": "CC(=O)N1N=C(c2cc(O)c(O)c([N+](=O)[O-])c2)CC1c1cccc(O)c1 (stereo unspecified)", "pIC50": 4.06}
{"compound": "O=C(/C=C/c1ccco1)c1cc(O)c(O)c([N+](=O)[O-])c1", "pIC50": 4.22}
{"compound": "N#Cc1cccc(/C=C/C(=O)c2cc(O)c(O)c([N+](=O)[O-])c2)c1", "pIC50": 4.23}
{"compound": "CC(=O)N1N=C(c2cc(O)c(O)c([N+](=O)[O-])c2)CC1c1ccoc1 (stereo unspecified)", "pIC50": 4.04}
{"compound": "O=C(/C=C/c1ccsc1)c1cc(O)c(O)c([N+](=O)[O-])c1", "pIC50": 4.38}
{"compound": "O=C(/C=C/c1cccs1)c1cc(O)c(O)c([N+](=O)[O-])c1", "pIC50": 4.30}
{"compound": "CC(=O)N1N=C(c2cc(O)c(O)c([N+](=O)[O-])c2)CC1c1nccs1 (stereo unspecified)", "pIC50": 4.07}
{"compound": "CC(=O)N1N=C(c2cc(O)c(O)c([N+](=O)[O-])c2)CC1c1cccs1 (stereo unspecified)", "pIC50": 4.06}
{"compound": "O=C(/C=C/c1ccoc1)c1cc(O)c(O)c([N+](=O)[O-])c1", "pIC50": 4.28}
{"compound": "N#Cc1ccc(/C=C/C(=O)c2cc(O)c(O)c([N+](=O)[O-])c2)cc1", "pIC50": 4.34}
{"compound": "CC(=O)N1N=C(c2cc(O)c(O)c([N+](=O)[O-])c2)CC1c1ccco1 (stereo unspecified)", "pIC50": 4.01}
{"compound": "CC(=O)N1N=C(c2cc(O)c(O)c([N+](=O)[O-])c2)CC1c1ccc(C#N)cc1 (stereo unspecified)", "pIC50": 4.12}
{"compound": "O=C(/C=C/c1nccs1)c1cc(O)c(O)c([N+](=O)[O-])c1", "pIC50": 4.16}
{"compound": "O=C(/C=C/c1cccc(O)c1)c1cc(O)c(O)c([N+](=O)[O-])c1", "pIC50": 4.36}
{"compound": "CC(=O)N1N=C(c2cc(O)c(O)c([N+](=O)[O-])c2)CC1c1cccc(C#N)c1 (stereo unspecified)", "pIC50": 4.15}

----------
Target: Amine oxidase [flavin-containing] B (Homo sapiens)
Test: Inhibition of recombinant human MAOB using kynuramine as substrate by fluorescence based assay
Mark t only for IC50 values smaller than 70 µM; exact matches and larger values are f.

{"compound": "Cn1cc(/C=C/C(=O)c2cc(O)c(O)c([N+](=O)[O-])c2)cn1", "test_system": "Amine oxidase [flavin-containing] B (Homo sapiens)", "label_class": "t"}
{"compound": "CC(=O)N1N=C(c2cc(O)c(O)c([N+](=O)[O-])c2)CC1c1ccc(C#N)cc1 (stereo not given)", "test_system": "Amine oxidase [flavin-containing] B (Homo sapiens)", "label_class": "f"}
{"compound": "CC(=O)N1N=C(c2cc(O)c(O)c([N+](=O)[O-])c2)CC1c1ccoc1 (stereo not given)", "test_system": "Amine oxidase [flavin-containing] B (Homo sapiens)", "label_class": "f"}
{"compound": "CC(=O)N1N=C(c2cc(O)c(O)c([N+](=O)[O-])c2)CC1c1cccc(C#N)c1 (stereo not given)", "test_system": "Amine oxidase [flavin-containing] B (Homo sapiens)", "label_class": "t"}
{"compound": "N#Cc1ccc(/C=C/C(=O)c2cc(O)c(O)c([N+](=O)[O-])c2)cc1", "test_system": "Amine oxidase [flavin-containing] B (Homo sapiens)", "label_class": "t"}
